- protocolSummary: qHTS assay for identifying genotoxic compounds that show differential cytotoxicity against isogenic chicken DT40 cell lines with known DNA damage response pathways - Rad54/Ku70 mutant cell line (AID 743015); also: nearly all actives have a fitted effect of over 60% in size
- conditionNotes: DT40 Rad54/Ku70 mutant viability, CellTiter-Glo, 40 h; series mostly up to 66.8 µM
Records with an inconclusive call do not appear. The source made the active and inactive calls. Calls follow the shape of the dose curve; as a rule, active = well fitted cell-killing curve with a large enough effect in the repeat runs; inconclusive = weak or mixed curves; inactive = no such curve, though single readings can be large or run the other way.
Your reply should match one of these outcome classes. active, inactive

Task item: Assay result, entry CCCCN(CCCC)C(=O)N(CCCC)CCCC — outcome?
Reply: inactive

Task item: Assay result, entry N=C1N=C(N)c2cc3ccccc3cc21 — outcome?
Reply: active

Task item: Assay result, entry c1cc(C(c2ccc(OCC3CO3)cc2)c2ccc(OCC3CO3)cc2)ccc1OCC1CO1 (stereo unspecified) — outcome?
Reply: active

Task item: Assay result, entry Oc1cccc2cc3cccc(O)c3c(O)c12 — outcome?
Reply: inactive

Task item: Assay result, entry OCc1c[nH]c2ccccc12 — outcome?
Reply: active

Task item: Assay result, entry OCCN1CCN(CC/C=C2/c3ccccc3Sc3ccc(C(F)(F)F)cc32)CC1 — outcome?
Reply: active

====

- assayTarget: Progesterone receptor (Homo sapiens) (UniProt P06401)
- Sequence (P06401 whole entry, looked up): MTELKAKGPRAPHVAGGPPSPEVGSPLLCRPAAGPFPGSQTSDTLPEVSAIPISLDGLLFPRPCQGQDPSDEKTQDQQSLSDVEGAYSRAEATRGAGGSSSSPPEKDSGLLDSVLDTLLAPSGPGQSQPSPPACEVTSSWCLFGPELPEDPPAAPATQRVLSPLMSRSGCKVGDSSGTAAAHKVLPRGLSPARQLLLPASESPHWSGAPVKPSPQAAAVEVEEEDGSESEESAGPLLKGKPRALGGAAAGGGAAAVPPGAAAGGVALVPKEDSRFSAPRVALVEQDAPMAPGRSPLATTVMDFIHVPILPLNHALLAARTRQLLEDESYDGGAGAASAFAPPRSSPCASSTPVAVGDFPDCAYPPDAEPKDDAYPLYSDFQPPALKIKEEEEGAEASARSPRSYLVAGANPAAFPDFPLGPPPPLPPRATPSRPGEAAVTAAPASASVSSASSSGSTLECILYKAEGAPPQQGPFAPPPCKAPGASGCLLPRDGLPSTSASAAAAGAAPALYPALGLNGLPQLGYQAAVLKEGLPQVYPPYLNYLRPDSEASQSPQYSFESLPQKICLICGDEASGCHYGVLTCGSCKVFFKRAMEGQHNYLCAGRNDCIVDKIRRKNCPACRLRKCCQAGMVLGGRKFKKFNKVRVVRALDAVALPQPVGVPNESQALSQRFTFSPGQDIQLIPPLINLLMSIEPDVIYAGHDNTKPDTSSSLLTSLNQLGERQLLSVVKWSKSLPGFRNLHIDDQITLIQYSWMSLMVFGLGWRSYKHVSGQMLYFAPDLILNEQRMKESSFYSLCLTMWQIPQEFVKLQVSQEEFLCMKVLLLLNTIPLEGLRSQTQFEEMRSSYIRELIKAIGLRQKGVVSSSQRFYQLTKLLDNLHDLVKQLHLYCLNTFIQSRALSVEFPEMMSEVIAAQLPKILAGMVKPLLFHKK
- protocolSummary: qHTS assay to identify small molecule agonists of the progesterone receptor (PR) signaling pathway (AID 1346784); also: nearly all actives have a fitted effect of over 30% in size
- conditionNotes: PR-UAS-bla HEK293T, beta-lactamase FRET ratio, 16 h; series mostly up to 92.4 µM
Results filed as inconclusive are left out. Active and inactive are the calls of the source. Calls follow the shape of the full dose curve.
Your reply should match one of these outcome classes. active, inactive

Task item: Assay result, entry CC(C)OC(=O)c1cc2c(OCC(O)CNC(C)(C)C)cccc2[nH]1 (stereo not given) — outcome?
Reply: inactive

Task item: Assay result, entry CCCCCCCCn1sc(Cl)c(Cl)c1=O — outcome?
Reply: inactive

Task item: Assay result, entry N#CC1(c2ccc(F)cc2)CCC(=O)CC1 — outcome?
Reply: inactive

Task item: Assay result, entry Nc1c2ccccc2nc2ccccc12 — outcome?
Reply: active

Task item: Assay result, entry NNc1nc(-c2ccc([N+](=O)[O-])cc2)cs1 — outcome?
Reply: inactive

Task item: Assay result, entry CCCCN1C(=O)[C@@H]([C@H](O)C2CCCCC2)NC(=O)C12CCN(Cc1ccc(Oc3ccc(C(=O)O)cc3)cc1)CC2 — outcome?
Reply: inactive

Task item: Assay result, entry CCC(N)(CO)CO — outcome?
Reply: inactive

Task item: Assay result, entry CCCCCCCCCCCCCCCC[N+](C)(C)CCN(Cc1ccc(OC)cc1)c1ncccn1 — outcome?
Reply: inactive

Task item: Assay result, entry CCC1OCC(COc2ccc(Oc3ccccc3)cc2)O1 (stereo not given) — outcome?
Reply: inactive

Task item: Assay result, entry Cc1cccc(CN2CCN(C(c3ccccc3)c3ccc(Cl)cc3)CC2)c1 (stereo not given) — outcome?
Reply: inactive

Task item: Assay result, entry CCCCCCCCOc1ccccc1C(=O)Nc1ccc(C(=O)OCC[N+](C)(CC)CC)cc1 — outcome?
Reply: inactive

Task item: Assay result, entry CC(C)=CCOc1ccc(/C=C/C(=O)c2ccc(OCC=C(C)C)cc2OCC(=O)O)cc1 — outcome?
Reply: inactive

Task item: Assay result, entry CCC(Cl)C(Cl)C(Cl)CC(Cl)C(Cl)C(C)Cl (stereo not given) — outcome?
Reply: inactive

Task item: Assay result, entry Cc1oc(-c2ccccc2)nc1CCC(=O)c1ccc(CC2SC(=O)NC2=O)cc1 (stereo not given) — outcome?
Reply: inactive

Task item: Assay result, entry Nc1c(Cl)cc(Cl)cc1Cl — outcome?
Reply: inactive

Task item: Assay result, entry O=[N+]([O-])c1cc(Cl)c(Cl)c(Cl)c1Cl — outcome?
Reply: inactive

Task item: Assay result, entry COC(=O)C1=C(C)NC(C)=C(C(=O)OCCc2ccc(N3CCN(C(c4ccccc4)c4ccccc4)CC3)cc2)C1c1cccc([N+](=O)[O-])c1 (stereo not given) — outcome?
Reply: inactive

Task item: Assay result, entry COCCCC/C(=N\OCCN)c1ccc(C(F)(F)F)cc1 — outcome?
Reply: inactive

Task item: Assay result, entry O=c1[nH]sc2cc(Cl)ccc12 — outcome?
Reply: inactive

Task item: Assay result, entry CN(C)[C@@H]1C(=O)C(C(N)=O)=C(O)[C@@]2(O)C(=O)C3=C(O)c4c(O)ccc(Cl)c4[C@@H](O)[C@H]3C[C@@H]12 — outcome?
Reply: inactive

Task item: Assay result, entry O=C1C=CC(=O)N1c1ccc(Cc2ccc(N3C(=O)C=CC3=O)cc2)cc1 — outcome?
Reply: inactive

Task item: Assay result, entry O=c1c(-c2ccccc2)c1-c1ccccc1 — outcome?
Reply: inactive

Task item: Assay result, entry CSc1ccc(/C=C2/C(C)=C(CC(=O)O)c3cc(F)ccc32)cc1 — outcome?
Reply: inactive

Task item: Assay result, entry O=C(O)c1c(Cl)cccc1Cl — outcome?
Reply: inactive

Task item: Assay result, entry CC[C@H](c1ccc(O)cc1)[C@@H](CC)c1ccc(O)cc1 — outcome?
Reply: inactive

Task item: Assay result, entry CCCCCCCCCCn1cc[n+](CCCCCCCCCC)c1C — outcome?
Reply: inactive

Task item: Assay result, entry Oc1ccc2c(c1)-c1ccccc1C2 — outcome?
Reply: inactive

Task item: Assay result, entry Clc1ccc2nsnc2c1NC1=NCCN1 — outcome?
Reply: inactive

Task item: Assay result, entry CNC(=O)c1ccccc1 — outcome?
Reply: inactive

Task item: Assay result, entry Cc1onc(-c2c(Cl)cccc2Cl)c1C(=O)N[C@@H]1C(=O)N2[C@@H]1SC(C)(C)[C@@H]2C(=O)O — outcome?
Reply: inactive

Task item: Assay result, entry CCCCCCCCCCC=O — outcome?
Reply: inactive

Task item: Assay result, entry NC(=O)NS(=O)(=O)c1ccc(N)cc1 — outcome?
Reply: inactive

Task item: Assay result, entry CN(C)CCCOC1(Cc2ccccc2)CCCCCC1 — outcome?
Reply: inactive

Task item: Assay result, entry C/C=C(\C)C(=O)OCc1ccccc1 — outcome?
Reply: inactive

Task item: Assay result, entry CC(C)C(C)(C)C(C)(C)C(C)(C)S — outcome?
Reply: inactive

Task item: Assay result, entry Cc1cccc(S(=O)(=O)O)c1C — outcome?
Reply: inactive

Task item: Assay result, entry NC(=O)CC[C@@H]1NC(=O)[C@H](Cc2ccccc2)NC(=O)[C@H](Cc2ccc(O)cc2)NC(=O)CCSSC[C@@H](C(=O)N2CCC[C@H]2C(=O)N[C@@H](CCCN=C(N)N)C(=O)NCC(N)=O)NC(=O)[C@H](CC(N)=O)NC1=O — outcome?
Reply: inactive

Task item: Assay result, entry Cc1nc(-c2ccc3c(c2)CCN(CCC2CCC(NC(=O)/C=C/c4ccc(F)cc4)CC2)CC3)no1 (stereo not given) — outcome?
Reply: inactive

Task item: Assay result, entry COc1ccc(C(=O)/C(Br)=C\C(=O)O)cc1 — outcome?
Reply: inactive

Task item: Assay result, entry N=C1C=CC(=C(c2ccc(N)cc2)c2ccc(N)cc2)C=C1 — outcome?
Reply: inactive

Task item: Assay result, entry CCN(Cc1cccnc1)C(=O)c1cccc(Cl)c1[C@]1(C)C(=O)N(Cc2ccc(OC)cc2OC)c2ccc(Cl)cc21 — outcome?
Reply: inactive

Task item: Assay result, entry NC(=NCCCCCCN=C(N)/N=C(\N)Nc1ccc(Cl)cc1)/N=C(\N)Nc1ccc(Cl)cc1 — outcome?
Reply: inactive

Task item: Assay result, entry CCCCCCCC(=O)[O-].CCCCCCCC(=O)[O-].[Zn+2] — outcome?
Reply: inactive

Task item: Assay result, entry CCCCCCCCCCCCCCCC(=O)OC[C@H](O)[C@H]1OC(=O)C(O)=C1O — outcome?
Reply: inactive

Task item: Assay result, entry O=Cc1cc(O)ccc1Br — outcome?
Reply: active

====

- protocolSummary: A CellTox Green Cytotoxicity Assay to monitor cytotoxicity in HepG2 cells - 40 hour (AID 1224879); also: nearly all actives have a fitted effect of over 40% in size
- conditionNotes: CellTox Green fluorescence; series mostly up to 76.8 µM
Inconclusive results are not listed. Calls of active or inactive are those of the source. Calls follow the shape of the dose curve; as a rule, active = well fitted activation curve with a large enough effect in the repeat runs; inconclusive = weak or mixed curves; inactive = flat fitted curve, though single readings scatter.
Your reply should match one of these outcome classes. class 1 (active), class 0 (inactive)

Task item: Assay result, entry N#CC1(c2ccc(F)cc2)CCC(=O)CC1 — outcome?
Reply: class 0

Task item: Assay result, entry CCCCN1CCCC[C@H]1C(=O)Nc1c(C)cccc1C — outcome?
Reply: class 0

Task item: Assay result, entry O=c1cccccc1O — outcome?
Reply: class 0

Task item: Assay result, entry CC[C@H]1O[C@]2(CC[C@@H]1C)C[C@@H]1C[C@@H](C/C=C(\C)C[C@@H](C)/C=C/C=C3\CO[C@@H]4[C@H](O)C(C)=C[C@@H](C(=O)O1)[C@]34O)O2 — outcome?
Reply: class 1

Task item: Assay result, entry CCCCCCCCCCC=O — outcome?
Reply: class 0

Task item: Assay result, entry O=[N+]([O-])c1ccccc1Nc1ccccc1 — outcome?
Reply: class 0

Task item: Assay result, entry CSc1ccc(/C=C2/C(C)=C(CC(=O)O)c3cc(F)ccc32)cc1 — outcome?
Reply: class 0

Task item: Assay result, entry CNCc1cc(F)ccc1Oc1ccc(Cl)c(Cl)c1 — outcome?
Reply: class 1

Task item: Assay result, entry CSc1ccc2c(c1)C(N1CCN(C)CC1)Cc1ccccc1S2 (centres undefined) — outcome?
Reply: class 1

Task item: Assay result, entry CCCCN1C(=O)[C@@H]([C@H](O)C2CCCCC2)NC(=O)C12CCN(Cc1ccc(Oc3ccc(C(=O)O)cc3)cc1)CC2 — outcome?
Reply: class 0

Task item: Assay result, entry NNC(=O)c1cccc(C(=O)NN)c1 — outcome?
Reply: class 0

Task item: Assay result, entry CC(C)=CCOc1ccc(/C=C/C(=O)c2ccc(OCC=C(C)C)cc2OCC(=O)O)cc1 — outcome?
Reply: class 0

Task item: Assay result, entry CCCN(CCC)C(=O)C(CCC(=O)OCCCN1CCN(CCOC(=O)Cc2c(C)n(C(=O)c3ccc(Cl)cc3)c3ccc(OC)cc23)CC1)NC(=O)c1ccccc1 (centres undefined) — outcome?
Reply: class 1

Task item: Assay result, entry O=C(O)c1cc(O)c2c(c1)C(=O)c1cccc(O)c1C2=O — outcome?
Reply: class 0

Task item: Assay result, entry CC(=O)OCC(C)OC(C)=O (centres undefined) — outcome?
Reply: class 0

Task item: Assay result, entry ON=C1CCCC1 — outcome?
Reply: class 0

Task item: Assay result, entry [O-][n+]1ccccc1SSc1cccc[n+]1[O-] — outcome?
Reply: class 1

Task item: Assay result, entry CCCC/C=C/CCCCO — outcome?
Reply: class 0

Task item: Assay result, entry O=C1CCCc2c1cc1ccc3cccc4ccc2c1c34 — outcome?
Reply: class 0

Task item: Assay result, entry CC1=NC(C)OC1C (centres undefined) — outcome?
Reply: class 0

Task item: Assay result, entry O=C(OCC(COC(=O)c1ccccc1)(COC(=O)c1ccccc1)COC(=O)c1ccccc1)c1ccccc1 — outcome?
Reply: class 0

Task item: Assay result, entry NNc1nc(-c2ccc([N+](=O)[O-])cc2)cs1 — outcome?
Reply: class 0

Task item: Assay result, entry NNc1nc(-c2ccccc2)cs1 — outcome?
Reply: class 0

Task item: Assay result, entry Nc1cc(C(F)(F)F)ccc1S — outcome?
Reply: class 0
